# IC50 annotations
Test system: NF-κB
Experiment: NF-κB assay: THP1-NF-κB-LUC cells, LPS-stimulated secreted luciferase
Assay type: cell-based
Conditions: THP1-NF-κB-LUC cells; compounds 2 hours before LPS (10 ng/mL) for 18 hours; secreted luciferase; read-out: IC50 (NF-κB assay)

>  <MOLECULE>
O=C1COc2c(cc(Br)cc2S(=O)(=O)Nc2ccc(F)cc2F)N1 [BC19178]

>  <IC50>
< 100 nM

$$$$
>  <MOLECULE>
CCc1cccc(NS(=O)(=O)c2cc3c(cc2C)N(C(C)=O)CCO3)c1 [BC181373]

>  <IC50>
> 10000 nM

$$$$
>  <MOLECULE>
CC1Oc2c(cc(Cl)cc2S(=O)(=O)Nc2ccccc2)NC1=O (stereo not shown) [BC19291]

>  <IC50>
< 100 nM

$$$$
>  <MOLECULE>
CCC1Oc2cc(S(=O)(=O)Nc3ccc(C(C)C)cc3)c(Br)cc2N(C)C1=O (stereo not shown) [BC19934]

>  <IC50>
100 to 1000 nM

$$$$
>  <MOLECULE>
CC(C)CC1Oc2cc(S(=O)(=O)Nc3ccc(F)c(F)c3)c(Br)cc2NC1=O (stereo not shown) [BC19760]

>  <IC50>
< 100 nM

$$$$
>  <MOLECULE>
Cc1ccc(S(=O)(=O)c2cn(Cc3cccc(C)c3)c3ccc(F)cc3c2=O)cc1 [BC18328]

>  <IC50>
1000 to 10000 nM

$$$$
>  <MOLECULE>
COc1ccc(NS(=O)(=O)c2cc3c(cc2C)NC(=O)CO3)cc1 [BC181333]

>  <IC50>
1000 to 10000 nM

$$$$
>  <MOLECULE>
CCc1cccc(NS(=O)(=O)c2cc(Br)cc3c2OC(CC)C(=O)N3C)c1 (stereo not shown) [BC19915]

>  <IC50>
< 100 nM

$$$$
>  <MOLECULE>
CC1Oc2cc(S(=O)(=O)Nc3ccc(F)c(F)c3)c(Br)cc2N(C)C1=O (stereo not shown) [BC19788]

>  <IC50>
< 100 nM

$$$$
>  <MOLECULE>
Cc1ccc(NS(=O)(=O)c2cc3c(cc2C)NC(=O)CO3)cc1 [BC181370]

>  <IC50>
< 100 nM

$$$$
>  <MOLECULE>
CCC1Oc2c(cc(Br)cc2S(=O)(=O)Nc2ccc(C(C)C)cc2)N(C)C1=O (stereo not shown) [BC19933]

>  <IC50>
< 100 nM

$$$$
>  <MOLECULE>
CCOc1ccc(NS(=O)(=O)c2cc3c(cc2C)NC(=O)CO3)cc1 [BC181302]

>  <IC50>
< 100 nM

$$$$
>  <MOLECULE>
Cc1cc2c(cc1S(=O)(=O)Nc1c(C)cccc1C(C)C)OCC(=O)N2 [BC181313]

>  <IC50>
> 10000 nM

$$$$
>  <MOLECULE>
Cc1ccc(S(=O)(=O)c2c(O)[nH]c3ncccc3c2=O)cc1 [BC19258]

>  <IC50>
1000 to 10000 nM

$$$$
>  <MOLECULE>
CC1Oc2c(cc(Cl)cc2S(=O)(=O)Nc2ccc(C#N)cc2)NC1=O (stereo not shown) [BC19730]

>  <IC50>
< 100 nM

$$$$
>  <MOLECULE>
O=c1[nH]ccc2cc([S+]([O-])c3ccccc3)ccc12 (stereo not shown) [BC19454]

>  <IC50>
> 10000 nM

$$$$
>  <MOLECULE>
CC1Oc2c(cc(Cl)cc2S(=O)(=O)Nc2ccc(F)cc2F)NC1=O (stereo not shown) [BC19710]

>  <IC50>
< 100 nM

$$$$
>  <MOLECULE>
CC(=O)N1CCOc2cc(S(=O)(=O)Nc3ccc(Br)c(C)c3)c(C)cc21 [BC181306]

>  <IC50>
1000 to 10000 nM

$$$$
>  <MOLECULE>
CCC1Oc2c(cc(Br)cc2S(=O)(=O)Nc2ccc(F)c(F)c2)N(C)C1=O (stereo not shown) [BC19925]

>  <IC50>
< 100 nM

$$$$
>  <MOLECULE>
CC1Oc2c(cc(Cl)cc2S(=O)(=O)Nc2ccc(OC(F)(F)F)cc2)NC1=O (stereo not shown) [BC19394]

>  <IC50>
< 100 nM

$$$$
>  <MOLECULE>
CCc1ccccc1NS(=O)(=O)c1cc2c(cc1C)NC(=O)CO2 [BC181356]

>  <IC50>
> 10000 nM

$$$$
>  <MOLECULE>
CC1Oc2c(cc(Br)cc2S(=O)(=O)NCCc2ccc(OC(F)(F)F)cc2)NC1=O (stereo not shown) [BC19364]

>  <IC50>
> 10000 nM

$$$$
>  <MOLECULE>
COc1cccc(NS(=O)(=O)c2cc3c(cc2C)N(C(C)=O)CCO3)c1 [BC181317]

>  <IC50>
> 10000 nM

$$$$
>  <MOLECULE>
CC1Oc2cc(S(=O)(=O)Nc3ccccc3)c(Cl)cc2NC1=O (stereo not shown) [BC19206]

>  <IC50>
1000 to 10000 nM

$$$$
>  <MOLECULE>
COc1ccc2[nH]cc(S(=O)(=O)c3ccc(F)c(F)c3)c(=O)c2n1 [BC 19203]

>  <IC50>
1000 to 10000 nM

$$$$
>  <MOLECULE>
CC(C)CC1Oc2cc(S(=O)(=O)Nc3ccc(F)cc3)c(Br)cc2NC1=O (stereo not shown) [BC19782]

>  <IC50>
1000 to 10000 nM

$$$$
>  <MOLECULE>
COc1ccc(NS(=O)(=O)c2cc(Br)cc3c2OCC(=O)N3)cc1Cl [BC19171]

>  <IC50>
< 100 nM

$$$$
>  <MOLECULE>
CCCNS(=O)(=O)c1cc(Br)cc2c1OC(CC)C(=O)N2 (stereo not shown) [BC19229]

>  <IC50>
1000 to 10000 nM

$$$$
>  <MOLECULE>
O=S(=O)(c1ccccc1)c1cnccc1O [BC19461]

>  <IC50>
> 10000 nM

$$$$
>  <MOLECULE>
Cc1ccc(NS(=O)(=O)c2cc3c(cc2Cl)NC(=O)C(C)O3)cc1Cl (stereo not shown) [BC19708]

>  <IC50>
< 100 nM

$$$$
>  <MOLECULE>
CCC1Oc2cc(S(=O)(=O)Nc3ccc(Cl)cc3)c(Br)cc2N(C)C1=O (stereo not shown) [BC19930]

>  <IC50>
100 to 1000 nM

$$$$
>  <MOLECULE>
CCC1Oc2c(cc(Cl)cc2S(=O)(=O)Nc2ccc(Cl)cc2)NC1=O (stereo not shown) [BC19740]

>  <IC50>
< 100 nM

$$$$
>  <MOLECULE>
CC(C)CNS(=O)(=O)c1cc2c(cc1Br)NC(=O)C(C)O2 (stereo not shown) [BC19218]

>  <IC50>
> 10000 nM

$$$$
>  <MOLECULE>
CCOc1ccc(OCC)c(NS(=O)(=O)c2cc3c(cc2C)NC(=O)CO3)c1 [BC181337]

>  <IC50>
> 10000 nM

$$$$
>  <MOLECULE>
O=C1COc2c(cc(Br)cc2S(=O)(=O)Nc2ccc(C(F)(F)F)cc2Cl)N1 [BC19384]

>  <IC50>
< 100 nM

$$$$
>  <MOLECULE>
O=c1[nH]ccc2cc([S+]([O-])c3ccc(Cl)cc3)ccc12 (stereo not shown) [BC19515]

>  <IC50>
> 10000 nM

$$$$
>  <MOLECULE>
CC1Oc2cc(S(=O)(=O)Nc3ccc(C#N)cc3)c(Br)cc2N(C)C1=O (stereo not shown) [BC19920]

>  <IC50>
100 to 1000 nM

$$$$
